- assayed_system: ZAP-70 (Homo sapiens, UniProt P43403)
- test_summary: DELFIA assay (ZAP-70 kinase, phosphorylation of biotinylated poly(glu,tyr))
- Type: biochemical
- condition_parameters: ZAP-70 DELFIA, class symbols; read-out: Activity (IC50 in vitro)
measurement_type: IC50

Example cases with answers are listed next.
                                   molecule  readout_value
0  N#Cc1ccc(-c2ccc3nc(NCc4csc5ccc(Cl)cc45)cc(C(=O)N4CCC[C@H]4CN4CCCC4)c3c2)cc1        > 10 µM
1  N#Cc1ccc(-c2ccc3nc(NCCc4cccc(O)c4)cc(C(=O)N4CCC[C@H]4CN4CCCC4)c3c2)cc1     1 to 10 µM
2  O=C(Nc1cc(C(=O)N2CCC[C@H]2CN2CCCC2)c2cc(-c3ccc4c(c3)OCO4)ccc2n1)c1ccc(C(F)(F)F)cc1     1 to 10 µM
3  O=C(c1cc(/C=C/c2ccc(C(F)(F)F)cc2)nc2ccc(-c3ccc4c(c3)OCO4)cc12)N1CCC[C@H]1CN1CCCC1     1 to 10 µM

Now look at this entry.
Which IC50 value is on record for O=C(c1cc(NCc2ccc(C(F)(F)F)cc2)nc2ccc(-c3cccc(Cl)c3)cc12)N1CCC[C@H]1CN1CCCC1 ?
< 1 µM

----------
Each entry below carries its reported IC50.
- assayed_system: ZAP-70 (Homo sapiens)
- test_summary: DELFIA assay (ZAP-70 kinase, phosphorylation of biotinylated poly(glu,tyr))
- Format: biochemical
- condition_parameters: ZAP-70 DELFIA, class symbols; read-out: Activity (IC50 in vitro)

What value of measured IC50 is listed for COc1cc(C(=O)N2CCC[C@H]2CN2CCCC2)cc(NCc2ccccc2)n1 [Compound 7] ?
> 10 µM

Next entry: O=C(c1cc(OCc2ccc(Cl)cc2)nc2ccc(-c3ccc4c(c3)OCO4)cc12)N1CCC[C@H]1CN1CCCC1 [Compound 99]
< 1 µM

Entry O=C(c1cc(NCc2ccc(C(F)(F)F)cc2)nc2ccc(-c3cccs3)cc12)N1CCC[C@H]1CN1CCCC1 [Compound 293] please
1 to 10 µM

----------
- assayed_system: ZAP-70 (Homo sapiens)
- Sequence (P43403 1-619): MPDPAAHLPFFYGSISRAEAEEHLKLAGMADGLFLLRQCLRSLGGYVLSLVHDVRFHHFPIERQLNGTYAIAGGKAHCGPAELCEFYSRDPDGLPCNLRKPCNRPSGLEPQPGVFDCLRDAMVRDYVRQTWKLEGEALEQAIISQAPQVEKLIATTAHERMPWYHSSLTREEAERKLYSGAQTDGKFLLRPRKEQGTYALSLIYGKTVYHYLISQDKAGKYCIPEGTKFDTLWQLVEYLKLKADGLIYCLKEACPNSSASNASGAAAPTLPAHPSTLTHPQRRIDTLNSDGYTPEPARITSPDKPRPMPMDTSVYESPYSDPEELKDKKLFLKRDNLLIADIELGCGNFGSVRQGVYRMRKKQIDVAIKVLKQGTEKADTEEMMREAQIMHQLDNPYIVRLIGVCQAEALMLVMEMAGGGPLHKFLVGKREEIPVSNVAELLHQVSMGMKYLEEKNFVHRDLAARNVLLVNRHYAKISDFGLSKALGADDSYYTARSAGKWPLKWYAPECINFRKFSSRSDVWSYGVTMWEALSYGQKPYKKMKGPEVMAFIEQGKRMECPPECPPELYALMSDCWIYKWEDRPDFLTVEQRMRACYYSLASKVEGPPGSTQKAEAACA
- test_summary: DELFIA assay (ZAP-70 kinase, phosphorylation of biotinylated poly(glu,tyr))
- Assay type: biochemical
- condition_parameters: ZAP-70 DELFIA, class symbols; read-out: Activity (IC50 in vitro)
pIC50: −log10 of the molar value.
measurement_type: pIC50

                                   compound  measurement_type  readout_value
0  Nc1cc(CCc2ccc(C(F)(F)F)cc2)cc2c(C(=O)N3CCC[C@H]3CN3CCCC3)cc(CCc3ccc(C(F)(F)F)cc3)nc12 [Compound 433]             pIC50         > 6.00
1  O=C(c1cc(Nc2ccc(Cl)cc2)nc2ccc(-c3ccc4c(c3)OCO4)cc12)N1CCC[C@H]1CN1CCCC1 [Compound 52]             pIC50         > 6.00
2  CCCCc1ccc2nc(NCc3ccc(C(F)(F)F)cc3)cc(C(=O)N3CCC[C@H]3CN3CCCC3)c2c1 [Compound 291]             pIC50         < 5.00

The record that follows has no pIC50 shown yet.
Give its pIC50 value. Item: N#Cc1ccc(-c2ccc3nc(N4CCOC(c5ccccc5)C4)cc(C(=O)N4CCC[C@H]4CN4CCCC4)c3c2)cc1 (stereo partly shown) [Compound 255]
< 5.00
